These measurements were taken from paper PMC9177108.

Experiment: Plasma pharmacokinetics
Format: in vivo, human
Settings: human, plasma, 10 mg, λ z, Mean ± SD, single dose, C1D1, continuous arm (n = 5)
measured attribute: k el
Numeric answer plus unit only.

-- ask Return reported k el; argument: CNC(=O)c1cccc2cc(Oc3ccnc4cc(OCC5(N)CC5)c(OC)cc34)ccc12 [Lucitanib]
-- reply 8.33e-06 s⁻¹

###

Assay: Plasma pharmacokinetics
Format: in vivo, human
Settings: human, plasma, 10 mg, V z/F, GeoMean(%CVb), single dose, C1D1, continuous arm (n = 5)
measured attribute: Vd/F
Numeric answer plus unit only.

-- ask Return reported Vd/F; argument: CNC(=O)c1cccc2cc(Oc3ccnc4cc(OCC5(N)CC5)c(OC)cc34)ccc12 [Lucitanib]
-- reply 68 L

###

Assay: Plasma pharmacokinetics
Type: in vivo, human
Conditions: human, plasma, oral, 10 mg, Css, avg, Mean ± SD, multiple dose, C1D15, continuous arm (n=5)
measured attribute: concentration at 15 day (ng/mL)
Expressed in ng/mL, but write only the number.

-- ask Return reported concentration at 15 day; argument: CNC(=O)c1cccc2cc(Oc3ccnc4cc(OCC5(N)CC5)c(OC)cc34)ccc12
-- reply 278

###

Experiment: Plasma pharmacokinetics
Assay type: in vivo, human
Settings: human, plasma, oral, 10 mg, MRT, Mean ± SD, single dose, C1D1, intermittent arm (n = 4)
measured attribute: MRT (h)
Expressed in h, but write only the number.

-- ask Return reported MRT; argument: CNC(=O)c1cccc2cc(Oc3ccnc4cc(OCC5(N)CC5)c(OC)cc34)ccc12
-- reply 36.3

###

Assay: Plasma pharmacokinetics
Format: in vivo, human
Details: human, plasma, 10 mg, λ z, GeoMean(%CVb), single dose, C1D1, continuous arm (n = 5)
measured attribute: k el (s⁻¹)
Expressed in s⁻¹, but write only the number.

-- ask Return reported k el; argument: CNC(=O)c1cccc2cc(Oc3ccnc4cc(OCC5(N)CC5)c(OC)cc34)ccc12
-- reply 8.33e-06

###

Assay: Plasma pharmacokinetics
Assay type: in vivo, human
Conditions: human, plasma, oral, 10 mg, λz, GeoMean(%CVb), multiple dose, C1D15, intermittent arm (n=4)
measured attribute: k el (s⁻¹)
Expressed in s⁻¹, but write only the number.

-- ask Return reported k el; argument: CNC(=O)c1cccc2cc(Oc3ccnc4cc(OCC5(N)CC5)c(OC)cc34)ccc12
-- reply 5.56e-06

###

Experiment: Plasma pharmacokinetics
Format: in vivo, human
Conditions: human, plasma, oral, 10 mg, Css, min, Mean ± SD, multiple dose, C1D15, continuous arm (n=5)
measured attribute: concentration at 15 day (ng/mL)
Expressed in ng/mL, but write only the number.

-- ask Return reported concentration at 15 day; argument: CNC(=O)c1cccc2cc(Oc3ccnc4cc(OCC5(N)CC5)c(OC)cc34)ccc12 [Lucitanib]
-- reply 203

###

Experiment: Plasma pharmacokinetics
Assay type: in vivo, human
Conditions: human, plasma, oral, 10 mg, MRT, GeoMean(%CVb), single dose, C1D1, intermittent arm (n = 4)
measured attribute: MRT (h)
Expressed in h, but write only the number.

-- ask Return reported MRT; argument: CNC(=O)c1cccc2cc(Oc3ccnc4cc(OCC5(N)CC5)c(OC)cc34)ccc12
-- reply 32.6

###

Assay: Plasma pharmacokinetics
Type: in vivo, human
Conditions: human, plasma, 10 mg, AUC0-t, GeoMean(%CVb), single dose, C1D1, continuous arm (n = 5)
measured attribute: AUC(0-t) (ng·h/mL)
Expressed in ng·h/mL, but write only the number.

-- ask Return reported AUC(0-t); argument: CNC(=O)c1cccc2cc(Oc3ccnc4cc(OCC5(N)CC5)c(OC)cc34)ccc12
-- reply 2370

###

Experiment: Plasma pharmacokinetics
Format: in vivo, human
Settings: human, plasma, 10 mg, V z/F, Mean ± SD, single dose, C1D1, continuous arm (n = 5)
measured attribute: Vd/F

-- ask Return reported Vd/F; argument: CNC(=O)c1cccc2cc(Oc3ccnc4cc(OCC5(N)CC5)c(OC)cc34)ccc12
-- reply 75.2 L

###

Assay: Plasma pharmacokinetics
Assay type: in vivo, human
Details: human, plasma, oral, 10 mg, AUC0-24h, Mean ± SD, single dose, C1D1, continuous arm (n = 5)
measured attribute: AUC(0-t) (ng·h/mL)
Expressed in ng·h/mL, but write only the number.

-- ask Return reported AUC(0-t); argument: CNC(=O)c1cccc2cc(Oc3ccnc4cc(OCC5(N)CC5)c(OC)cc34)ccc12 [Lucitanib]
-- reply 2560

###

Experiment: Plasma pharmacokinetics
Assay type: in vivo, human
Conditions: human, plasma, oral, 10 mg, AUC0-t, Mean ± SD, single dose, C1D1, continuous arm (n = 5)
measured attribute: AUC(0-t) (ng·h/mL)
Expressed in ng·h/mL, but write only the number.

-- ask Return reported AUC(0-t); argument: CNC(=O)c1cccc2cc(Oc3ccnc4cc(OCC5(N)CC5)c(OC)cc34)ccc12
-- reply 2510

###

Test: Plasma pharmacokinetics
Format: in vivo, human
Details: human, plasma, oral, 10 mg, Css, avg, GeoMean(%CVb), multiple dose, C1D15, intermittent arm (n=4)
measured attribute: concentration at 15 day
Numeric answer plus unit only.

-- ask Return reported concentration at 15 day; argument: CNC(=O)c1cccc2cc(Oc3ccnc4cc(OCC5(N)CC5)c(OC)cc34)ccc12
-- reply 382 ng/mL

###

Test: Plasma pharmacokinetics
Type: in vivo, human
Conditions: human, plasma, 10 mg, λ z, GeoMean(%CVb), single dose, C1D1, intermittent arm (n = 4)
measured attribute: k el

-- ask Return reported k el; argument: CNC(=O)c1cccc2cc(Oc3ccnc4cc(OCC5(N)CC5)c(OC)cc34)ccc12 [Lucitanib]
-- reply 8.33e-06 s⁻¹

###

Assay: Plasma pharmacokinetics
Type: in vivo, human
Conditions: human, plasma, 10 mg, AUC0-t, GeoMean(%CVb), single dose, C1D1, intermittent arm (n = 4)
measured attribute: AUC(0-t)

-- ask Return reported AUC(0-t); argument: CNC(=O)c1cccc2cc(Oc3ccnc4cc(OCC5(N)CC5)c(OC)cc34)ccc12 [Lucitanib]
-- reply 2720 ng·h/mL

###

Experiment: Plasma pharmacokinetics
Type: in vivo, human
Details: human, plasma, 10 mg, t 1/2, Mean ± SD, single dose, C1D1, continuous arm (n = 5)
measured attribute: half-life (h)
Expressed in h, but write only the number.

-- ask Return reported half-life; argument: CNC(=O)c1cccc2cc(Oc3ccnc4cc(OCC5(N)CC5)c(OC)cc34)ccc12
-- reply 23.8

###

Test: Plasma pharmacokinetics
Format: in vivo, human
Conditions: human, plasma, oral, 10 mg, Css, min, GeoMean(%CVb), multiple dose, C1D15, continuous arm (n=5)
measured attribute: concentration at 15 day (ng/mL)
Expressed in ng/mL, but write only the number.

-- ask Return reported concentration at 15 day; argument: CNC(=O)c1cccc2cc(Oc3ccnc4cc(OCC5(N)CC5)c(OC)cc34)ccc12 [Lucitanib]
-- reply 176

###

Assay: Plasma pharmacokinetics
Type: in vivo, human
Settings: human, plasma, 10 mg, AUCss, Mean ± SD, multiple dose, C1D15, continuous arm (n=5)
measured attribute: AUC (µg·h/mL)
Expressed in µg·h/mL, but write only the number.

-- ask Return reported AUC; argument: CNC(=O)c1cccc2cc(Oc3ccnc4cc(OCC5(N)CC5)c(OC)cc34)ccc12
-- reply 6.67

###

Assay: Plasma pharmacokinetics
Assay type: in vivo, human
Conditions: human, plasma, oral, 10 mg, AUC0-24h, GeoMean(%CVb), single dose, C1D1, intermittent arm (n = 4)
measured attribute: AUC(0-t) (ng·h/mL)
Expressed in ng·h/mL, but write only the number.

-- ask Return reported AUC(0-t); argument: CNC(=O)c1cccc2cc(Oc3ccnc4cc(OCC5(N)CC5)c(OC)cc34)ccc12 [Lucitanib]
-- reply 2770

###

Test: Plasma pharmacokinetics
Type: in vivo, human
Details: human, plasma, oral, 10 mg, Css, min, Mean ± SD, multiple dose, C1D15, intermittent arm (n=4)
measured attribute: concentration at 15 day (ng/mL)
Expressed in ng/mL, but write only the number.

-- ask Return reported concentration at 15 day; argument: CNC(=O)c1cccc2cc(Oc3ccnc4cc(OCC5(N)CC5)c(OC)cc34)ccc12
-- reply 303

###

Experiment: Plasma pharmacokinetics
Type: in vivo, human
Conditions: human, plasma, 10 mg, V z/F, GeoMean(%CVb), single dose, C1D1, intermittent arm (n = 4)
measured attribute: Vd/F (L)
Expressed in L, but write only the number.

-- ask Return reported Vd/F; argument: CNC(=O)c1cccc2cc(Oc3ccnc4cc(OCC5(N)CC5)c(OC)cc34)ccc12
-- reply 58.1

###

Assay: Plasma pharmacokinetics
Assay type: in vivo, human
Settings: human, plasma, oral, 10 mg, λz, GeoMean(%CVb), multiple dose, C1D15, continuous arm (n=5)
measured attribute: k el (s⁻¹)
Expressed in s⁻¹, but write only the number.

-- ask Return reported k el; argument: CNC(=O)c1cccc2cc(Oc3ccnc4cc(OCC5(N)CC5)c(OC)cc34)ccc12
-- reply 2.78e-06
